Target: T1, PTPRG, endogenous in H929 multiple myeloma cells (human, UniProt P23470 20-1445)
T1 construct: Native protein on H929 cells (flow cytometry, siRNA knockdown) and in H929 lysates (IP/MS); also called phosphatase receptor type γ
T1 sequence (P23470 20-1445 limits assumed): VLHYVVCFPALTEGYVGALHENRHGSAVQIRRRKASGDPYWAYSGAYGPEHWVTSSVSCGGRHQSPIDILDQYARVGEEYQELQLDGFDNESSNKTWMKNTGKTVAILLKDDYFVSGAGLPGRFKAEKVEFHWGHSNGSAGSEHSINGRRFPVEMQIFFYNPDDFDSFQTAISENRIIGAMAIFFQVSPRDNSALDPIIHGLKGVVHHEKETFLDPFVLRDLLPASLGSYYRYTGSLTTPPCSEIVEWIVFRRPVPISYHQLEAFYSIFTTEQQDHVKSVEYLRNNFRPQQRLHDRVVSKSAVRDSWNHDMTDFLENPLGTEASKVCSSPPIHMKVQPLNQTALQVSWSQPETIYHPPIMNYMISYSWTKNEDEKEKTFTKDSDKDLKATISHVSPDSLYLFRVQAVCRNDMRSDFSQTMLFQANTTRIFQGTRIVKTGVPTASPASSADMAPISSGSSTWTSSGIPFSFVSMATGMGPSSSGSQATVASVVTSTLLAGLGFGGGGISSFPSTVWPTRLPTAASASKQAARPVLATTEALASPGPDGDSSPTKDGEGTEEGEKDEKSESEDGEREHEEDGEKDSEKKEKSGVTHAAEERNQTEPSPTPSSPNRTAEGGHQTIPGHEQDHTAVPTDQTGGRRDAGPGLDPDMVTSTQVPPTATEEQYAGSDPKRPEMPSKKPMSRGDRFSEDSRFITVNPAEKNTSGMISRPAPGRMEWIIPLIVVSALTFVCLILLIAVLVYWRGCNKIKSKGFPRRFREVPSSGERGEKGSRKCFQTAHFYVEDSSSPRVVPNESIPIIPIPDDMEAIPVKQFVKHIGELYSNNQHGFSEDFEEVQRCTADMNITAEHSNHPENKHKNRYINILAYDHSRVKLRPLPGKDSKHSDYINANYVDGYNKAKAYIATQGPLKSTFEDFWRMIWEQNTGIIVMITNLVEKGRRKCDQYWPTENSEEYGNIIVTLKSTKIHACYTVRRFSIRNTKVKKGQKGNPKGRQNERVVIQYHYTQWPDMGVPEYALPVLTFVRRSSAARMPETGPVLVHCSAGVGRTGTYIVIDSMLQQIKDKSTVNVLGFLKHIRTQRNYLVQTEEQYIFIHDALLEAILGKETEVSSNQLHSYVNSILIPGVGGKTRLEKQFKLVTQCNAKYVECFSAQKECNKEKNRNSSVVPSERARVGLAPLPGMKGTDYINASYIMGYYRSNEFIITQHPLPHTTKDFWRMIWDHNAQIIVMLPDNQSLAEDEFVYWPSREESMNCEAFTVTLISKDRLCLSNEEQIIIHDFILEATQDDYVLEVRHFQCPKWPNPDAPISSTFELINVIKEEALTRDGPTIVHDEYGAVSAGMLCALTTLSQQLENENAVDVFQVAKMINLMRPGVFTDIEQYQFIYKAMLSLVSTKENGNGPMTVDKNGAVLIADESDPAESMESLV
Assay: flow cytometry, H929 + vehicle; None 513
Listed here: items and their measured mAb binding (MFI).

Known mAb binding (MFI) results, listed for orientation:
HW-1 chimeric rabbit-human IgG1 LA/LA/PG (antibody, V domains shown, Fc-silenced (L234A/L235A/P329G) IgG1, lambda; Alexa Fluor 647-labeled in single-step flow cytometry; Prototype of cluster C-1) VH: QSLEESGGGLFKPTDTLTLTCTASGFSLGSSYAISWVRQAPGKELEWIGTIDSGRAYYARWAKSRSTITRNTNENTVTLKMTSLTAADTATYFCARDLIPTYSQDIWGPGTLVTISS VL: SFVLTQPASVQVNLGQTVSLTCTADTLSRRYASWYQQKPGQAPVLLIYRDTSRPSGVPDRFSGSSSGNTATLTISGAQAGDEADYYCATSDGSGNSYQYVFGGGTQLTVTS: 15000
HW-17 chimeric rabbit-human IgG1 LA/LA/PG (antibody, V domains shown, Fc-silenced (L234A/L235A/P329G) IgG1, lambda; Alexa Fluor 647-labeled in single-step flow cytometry; Cluster C-1) VH: QSLGESRGRLVTPDETLTLTCTVSGIDLSSNAMSWVRQAPGEGLEWIGTINTGGRAYYASWAKGRFTISRTSTTVDLKMTSLTTEDTATYFCARERYSDGRAYDIWGPGTLVTISS VL: SFVLTQPASVQVNLGQTVSLTCTADTLSRRYASWYQQKPGQAPVLLIYTDSNRPSGIPDRFSGSSSGNTATLTISGAQAGDEADYYCATDDGSGSIYQYVFGGGTQLTVTG: 15700

Query string: Item TH9-0022 (antibody, human IgG1, kappa, L234A L235A, V domains shown, also called TH9-022; negative control) VH: QSLEESGGRLVTPGTPLTLTCTVSGFSLSSYAMNWVRQAPGKGLEWIGIINSYGSTYYASWAKGRFTISKTSTTVDLKITSPTTEDTATYFCARVTYDSYGYGYAPYGMDLWGPGTLVTVSS VL: LVMTQTPSSTSNAVGGTVTIKCQASQSIGNVLAWYQQKPGQPPKLLIYAASTLASGVPSRVGGSRSGTEYTLTISGVQREDAATYYCLGSDSDSDIAFGGGTELEILR : provide mAb binding (MFI)
Result string: 595
